system: CCRIS mutagenicity, Ames/micronucleus/aberration tests; assay: CCRIS mutagenicity studies; conditions: Test System: UDS RAT HEPATOCYTES; Strain/Indicator: THY INCORP; Metabolic Activation: NONE
Activity calls are given as the source filed them. How the calls were made is not given here.
The categories you may choose from are active, inactive

**Query** For O=[N+]([O-])C1CCCC1 , which call appears in the assay record?
**Result** active

**Query** Assay outcome for C1CCCCCC2OC2CCCC1 (stereo unspecified) : what was it?
**Result** inactive

**Query** Recorded test outcome, item CCC(C)[N+](=O)[O-] (stereo unspecified)
**Result** active

**Query** // return assay outcome for CC1(C)C2CC3OC3(C)C1C2 (stereo unspecified)
**Result** inactive

**Query** Hi, sorry to bother you, what did the test record for CC(C)C[C@H]1C(=O)N2CCC[C@H]2[C@]2(O)O[C@](NC(=O)[C@@H]3C[C@@H]4c5cccc6[nH]cc(c56)C[C@H]4N(C)C3)(C(C)C)C(=O)N12 ?
**Result** inactive

**Query** // return assay outcome for C=Cc1ccncc1
**Result** inactive

====

system: CCRIS mutagenicity, Ames/micronucleus/aberration tests; experiment: CCRIS mutagenicity studies; conditions: Test System: AMES SALMONELLA TYPHIMURIUM; Strain/Indicator: TA1538; Metabolic Activation: RAT, LIVER, S-9, PHENOBARBITAL; Method: STANDARD PLATE
Calls of active or inactive are those of the source. How the calls were made is not given here.
Your reply should match one of these outcome classes. true = active, false = inactive

**Query** Hello, I am checking results. What call was entered for CC(=O)Nc1ccc2c(c1)Cc1ccccc1-2 ?
**Result** true

**Query** Hi team, can someone confirm the assay call for c1ccc(-c2cccc(-c3ccccn3)n2)nc1 ?
**Result** false

**Query** // param item: c1ccc(-c2cccnc2)nc1 ; yields the recorded call
**Result** false

**Query** Returns: the outcome recorded for COc1cc(-c2ccc(N)c(OC)c2)ccc1N in this assay.
**Result** true

**Query** Dear colleague, could you share the recorded outcome for Nc1ccc2[nH]c3ccccc3c2c1[N+](=O)[O-] when you have a moment?
**Result** true

**Query** Short answer needed: outcome of this test for Nc1ccccc1N ?
**Result** true

**Query** Entry Nc1cc2[nH]c3ccccc3c2cc1[N+](=O)[O-] : call = ?
**Result** true

**Query** Could you check what this test reported for CC(=O)Nc1cc2c(cc1[N+](=O)[O-])[nH]c1ccccc12 ?
**Result** true

**Query** Record lookup: outcome of this test for c1cc2ccc3ccc4ccc5cccc6c(c1)c2c3c4c56 ?
**Result** true

====

test system: CCRIS mutagenicity, Ames/micronucleus/aberration tests; assay: CCRIS mutagenicity studies; details: Test System: CHINESE HAMSTER V-79; Strain/Indicator: V-79/6-THIOGUANINE; Metabolic Activation: NONE
Calls of active or inactive are those of the source. How the calls were made is not given here.
// allowed return values: Yes (active), No (inactive)

**Query** // outcome(item) with item = CC(=O)ON(C(C)=O)c1ccc2c(c1)Cc1ccccc1-2
**Result** Yes

**Query** I'd appreciate the recorded outcome for Nc1cc(Cl)cc(Cl)c1O from this test.
**Result** No

**Query** Answer briefly: the call reported for N#Cc1cc([N+](=O)[O-])ccc1N=Nc1ccc(N(CCO)CCO)cc1 in this assay.
**Result** No

**Query** Recorded test outcome, item O[C@@H]1[C@H]2O[C@H]2c2c(ccc3nc4ccc5ccccc5c4cc23)[C@H]1O
**Result** Yes

**Query** For Cc1c2ccccc2cc2c3c(ccc12)C(O)C(O)[C@@H]1O[C@@H]31 (some centres undefined) , which call appears in the assay record?
**Result** Yes

**Query** Which result was noted for this compound in the test: O[C@@H]1[C@H]2O[C@H]2c2c(ccc3ccccc23)[C@H]1O
**Result** Yes

**Query** Any idea what this test logged for O=C(O)COc1ccc(C(=O)c2cccs2)c(Cl)c1Cl ?
**Result** No

**Query** Which outcome was entered for the compound CC(=O)N(O)c1ccc2c(c1)Cc1ccccc1-2 in this test?
**Result** Yes

**Query** What is the recorded call for this compound in the test? O=C(O)/C=C/C=C/C(=O)O
**Result** No

====

tested on: CCRIS mutagenicity, Ames/micronucleus/aberration tests; assay: CCRIS mutagenicity studies; settings: Test System: AMES SALMONELLA TYPHIMURIUM; Strain/Indicator: TA1537; Metabolic Activation: RAT, LIVER, S-9, AROCLOR 1254; Method: STANDARD PLATE
The source made the active and inactive calls. How the calls were made is not given here.
ATTRIBUTE MEASURED: mutagenic call

Record excerpt, results attached:
1) Cc1c(C)c(N)c(C)c(C)c1N ... inactive; negative
2) Cc1cc(N)c(C)cc1N ... inactive; negative
3) CC1(C)C(=O)[C@]2(C)CC[C@H]1C2 ... inactive; negative
4) Cc1cc(-c2ccc(N=Nc3cc(S(=O)(=O)O)c4ccccc4c3N)c(C)c2)ccc1N=Nc1cc(S(=O)(=O)O)c2ccccc2c1N ... inactive; negative
5) O=C1c2cc(S(=O)(=O)O)ccc2C(=O)c2c1cccc2[N+](=O)[O-] ... active; positive

**Query** For CCOP(=O)(OCC)O/C(=C/Br)c1ccc(Cl)cc1Cl , what is its reported mutagenic call?
**Result** inactive; negative

**Query** // returns reported mutagenic call for input N#Cc1cc([N+](=O)[O-])ccc1N=Nc1ccc(N(CCO)CCO)cc1
**Result** active; positive

**Query** Reported mutagenic call, compound CC(C)(C)N(CCO)CCO : ____
**Result** inactive; negative

====

test system: CCRIS mutagenicity, Ames/micronucleus/aberration tests; assay: CCRIS mutagenicity studies; conditions: Test System: AMES SALMONELLA TYPHIMURIUM; Strain/Indicator: TA98; Metabolic Activation: RAT, LIVER, S-9, PHENOBARBITAL AND 5,6-BENZOFLAVONE; Method: PREINCUBATION
Calls of active or inactive are those of the source. The rule behind the calls is not given here.
The categories you may choose from are active, inactive

**Query** Can you look up the reported call for O=C(O)/C=C/C=C/C(=O)O for me?
**Result** inactive

**Query** Any idea what this test logged for CC(=O)Nc1ccc(C)c(N)c1 ?
**Result** active

**Query** Give the logged outcome of this assay for the following compound: CCOC(=O)[C@H](CCc1ccccc1)N[C@@H](C)C(=O)N1[C@H](C(=O)O)C[C@H]2CCCC[C@@H]21
**Result** inactive

**Query** Tell me the assay call for Cc1[nH]c(=O)c(C#N)cc1-c1ccncc1 please.
**Result** inactive

**Query** In this assay, the call recorded for CC1=CC(=O)c2ccccc2C1=O was what?
**Result** active

**Query** Assay outcome for CNC(=C[N+](=O)[O-])NCCSCc1ccc(CN(C)C)o1 : what was it?
**Result** inactive

**Query** Recorded test outcome, item O=C(O)CO.[NH2-].[NH2-].[Pt+2]
**Result** active

====

test system: CCRIS mutagenicity, Ames/micronucleus/aberration tests; test: CCRIS mutagenicity studies; details: Test System: AMES SALMONELLA TYPHIMURIUM; Strain/Indicator: TA98; Metabolic Activation: MOUSE, LIVER, S-9; Method: STANDARD PLATE
The source made the active and inactive calls. How the calls were made is not given here.
ATTRIBUTE MEASURED: mutagenic call

1) Nc1ccc2cc3ccc(N)cc3nc2c1 ... active; positive
2) CCOc1ccc(NC(C)=O)cc1N ... active; positive

====

tested on: CCRIS mutagenicity, Ames/micronucleus/aberration tests; experiment: CCRIS mutagenicity studies; conditions: Test System: AMES SALMONELLA TYPHIMURIUM; Strain/Indicator: TA98; Metabolic Activation: RAT, LIVER, S-9, AROCLOR 1254; Method: STANDARD PLATE
Active and inactive are the calls of the source. The rule behind the calls is not given here.
Result category, one only: active, inactive

**Query** For CN(C)c1ccc(C(=C2C=CC(=[N+](C)C)C=C2)c2ccc(N(C)C)cc2)cc1 , what call appears in the results of this test?
**Result** inactive

**Query** Any idea what this test logged for CCC12OC1(C(=O)OC)C(=O)OC2C (stereo not given) ?
**Result** active

**Query** // param item: CC(=O)Nc1ccc(S(=O)(=O)O)c2cc(S(=O)(=O)O)c(N=Nc3ccc(N=Nc4ccc(S(=O)(=O)O)cc4)c4ccc(S(=O)(=O)O)cc34)c(O)c12 ; yields the recorded call
**Result** inactive

**Query** Outcome logged for OC1C=Cc2c(cc3ccc4cccc5ccc2c3c45)C1 (stereo not given) in this assay:
**Result** active

**Query** Test call, this compound: CC1=CC(=O)c2ccccc2C1=O
**Result** inactive

**Query** Give the logged outcome of this assay for the following compound: C#C[C@]1(OC(C)=O)CC[C@H]2[C@@H]3CCC4=CC(=O)CC[C@@H]4[C@H]3CC[C@@]21C
**Result** inactive

**Query** Query: recorded result category for Nc1ccc2cc3ccc(N)cc3nc2c1 in this test
**Result** active

**Query** Any idea what this test logged for Nc1c(C(=O)O)cc([N+](=O)[O-])c2c1C(=O)c1ccccc1C2=O ?
**Result** active

**Query** What did the test return for CC(=O)c1ccc(S(=O)(=O)NC(=O)NC2CCCCC2)cc1 ?
**Result** inactive

**Query** Check the results log: what was the call for O=C(Cl)OCC1c2ccccc2-c2ccccc21 ?
**Result** inactive
